# tested system: T1, human CD47 (recombinant protein, construct not stated) (human, UniProt Q08722 19-141)
# T1 construct: also called hCD47; human CD47 protein
# test description: ELISA on coated human CD47
measurement name: Fold increase in EC50 relative to 1-1-A1_BM (fold)
Numbers only, in fold.

11A1H10-IgG1 (antibody, V domains shown, Humanised version of clone 1-1-A1, IgG1/kappa; also called 1A11H10) VH: QVQLVQSGAEVKKPGASVKVSCKASGYTFTGYVIHWVRQAPGQGLEWMGYINPYNGGTNYAQKFKGRVTLTSDTSTTTAYMELSRLRSEDTAVYYCASGGYYTMDYWGQGTLVTVSS VL: DVVMTQSPLSLPVTLGQPASISCRSSQHLEYSNGYSYLHWYQQRPGQSPRLLIYKVSNRDSGVPDRFSGSGSGTDFTLKISRVEAEDVGVYYCSQSTHVPYTFGGGTKVEIKR :: 21200

Query binder follows.
Lab note: measured Fold increase in EC50 relative to 1-1-A1_BM of 11A1H3-IgG1 (antibody, V domains shown, Humanised version of clone 1-1-A1, IgG1/kappa; also called 1A11H3) VH: QVQLVQSGAEVKKPGASVKVSCKASGYTFTNYVMHWVRQAPGQGLEWMGYINPYNDGTKSNEKFQGRVTLTSDTSTSTAYMELSSLRSEDTAVYYCASGGYYTMDYWGQGTLVASTK VL: DVVMTQSPLSLPVTLGQPASISCRSSQHLEYSNGYSYLHWYQQRPGQSPRLLIYKISNRFSGVPDRFSGSGSGTDFTLKISRVEAEDVGVYYCSQSTHVPYTFGGGTKVEIKR was 0.12
